Test: amyloid nucleation score (Sup35N fusion, yeast selection) (log enrichment); library NNK1; higher = more nucleation; inactive = no reads after selection;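 further: zero at mode of non-aggregating sequences after 7 days selection at 30°C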
So basically every entry gets a class from its amyloid nucleation score, ranges being b0: < -0.02; b1: ≥ -0.02 and < 0.8; b2: ≥ 0.8

[
  {
    "Substance": "ATSKRIQWLMRERAPPTRYP",
    "Category label": "b1"
  },
  {
    "Substance": "ICVLKKFLVSIQSVIY",
    "Category label": "b2"
  },
  {
    "Substance": "ARERGCRSAH",
    "Category label": "b1"
  },
  {
    "Substance": "SEHRMASRHVNPRPGGKDCR",
    "Category label": "b0"
  },
  {
    "Substance": "TFMLATDGV",
    "Category label": "b1"
  },
  {
    "Substance": "YYNFCMDRRLLDNGTNGSKS",
    "Category label": "b1"
  },
  {
    "Substance": "KCIGKHEAVMKIFNWDEENW",
    "Category label": "b2"
  },
  {
    "Substance": "TVSMSMAYHVK",
    "Category label": "b2"
  },
  {
    "Substance": "HSHKGGWEWVSWLRREYWIA",
    "Category label": "b1"
  },
  {
    "Substance": "VRTLLWSS",
    "Category label": "b0"
  },
  {
    "Substance": "LWKGATRCHKVLRMLENDND",
    "Category label": "b0"
  },
  {
    "Substance": "HDLEIPICTWEYSVVIQGLQ",
    "Category label": "b1"
  },
  {
    "Substance": "FLNVARQV",
    "Category label": "b1"
  },
  {
    "Substance": "WCVWFVQISCMVRVGAKLNS",
    "Category label": "b1"
  },
  {
    "Substance": "CFVVYGQTPSTVPRINAVLS",
    "Category label": "b2"
  },
  {
    "Substance": "ISSECQVICYLLHEFSPASV",
    "Category label": "b2"
  },
  {
    "Substance": "VNVITGWCAQELVVRAILEI",
    "Category label": "b1"
  },
  {
    "Substance": "LHVRVCMYADMLSFYGSFAY",
    "Category label": "b2"
  },
  {
    "Substance": "GVISAGYFAGYETKLLLKGD",
    "Category label": "b2"
  },
  {
    "Substance": "RRGGDSMDYNCFSARSRAFM",
    "Category label": "b0"
  },
  {
    "Substance": "LTFMFTTRIA",
    "Category label": "b0"
  },
  {
    "Substance": "DKNVSRFIPNEMLCLKPWAP",
    "Category label": "b2"
  },
  {
    "Substance": "SRPYLLRLR",
    "Category label": "b1"
  },
  {
    "Substance": "GQSYRRNIMCTSFLWLGNRN",
    "Category label": "b2"
  },
  {
    "Substance": "SSYMLWFAIFVRNLNPLVFW",
    "Category label": "b0"
  },
  {
    "Substance": "HFNYNNTSMFSLTHSWHGIM",
    "Category label": "b2"
  },
  {
    "Substance": "AKSREWGDIARFSHPPALRA",
    "Category label": "b0"
  },
  {
    "Substance": "HYIPRRN",
    "Category label": "b1"
  },
  {
    "Substance": "YTTDREFLPICKDAATRDFL",
    "Category label": "b0"
  },
  {
    "Substance": "AFVLDIYMGMRSRYNDAPS",
    "Category label": "b2"
  },
  {
    "Substance": "FNLISGKIGYRLLQTCIMMM",
    "Category label": "b0"
  },
  {
    "Substance": "SIPRGFLLVLLVDNPTIRLQ",
    "Category label": "b0"
  },
  {
    "Substance": "RDTTTT",
    "Category label": "b1"
  }
]
